Cited source for all entries: BindingDB's records for doi:10.1016/j.bmc.2004.11.045

Molecular target: Gag-Pol polyprotein [588-1127,Y768C]/[588-1147,Y768C] (Human immunodeficiency virus 1, UniProt P04585, Y768C)
Construct: 588-1127; 588-1147
Assay: HIV-1 RT Assay
pIC50: −log10 of the molar value.
pIC50 for assorted compounds
Endpoint name: pIC50

CC(=O)Nc1ccc(Cl)cc1S(=O)(=O)/N=c1\sc(C(C)(C)C)c(C)n1C | < 4.30
Cc1c(C(C)(C)C)s/c(=N\S(=O)(=O)c2ccc(O)cc2)n1C | < 5.00
COc1ccc(S(=O)(=O)/N=c2\sc(C(C)(C)C)c(C)n2C)cc1 | < 5.00
